The measurements presented in this section are drawn from patent US20250051344A1.

# TARGET_DESC: SMARCA2 (Homo sapiens, UniProt P51531)
# Construct: endogenous in cells
# Sequence (P51531 whole entry, species assumed): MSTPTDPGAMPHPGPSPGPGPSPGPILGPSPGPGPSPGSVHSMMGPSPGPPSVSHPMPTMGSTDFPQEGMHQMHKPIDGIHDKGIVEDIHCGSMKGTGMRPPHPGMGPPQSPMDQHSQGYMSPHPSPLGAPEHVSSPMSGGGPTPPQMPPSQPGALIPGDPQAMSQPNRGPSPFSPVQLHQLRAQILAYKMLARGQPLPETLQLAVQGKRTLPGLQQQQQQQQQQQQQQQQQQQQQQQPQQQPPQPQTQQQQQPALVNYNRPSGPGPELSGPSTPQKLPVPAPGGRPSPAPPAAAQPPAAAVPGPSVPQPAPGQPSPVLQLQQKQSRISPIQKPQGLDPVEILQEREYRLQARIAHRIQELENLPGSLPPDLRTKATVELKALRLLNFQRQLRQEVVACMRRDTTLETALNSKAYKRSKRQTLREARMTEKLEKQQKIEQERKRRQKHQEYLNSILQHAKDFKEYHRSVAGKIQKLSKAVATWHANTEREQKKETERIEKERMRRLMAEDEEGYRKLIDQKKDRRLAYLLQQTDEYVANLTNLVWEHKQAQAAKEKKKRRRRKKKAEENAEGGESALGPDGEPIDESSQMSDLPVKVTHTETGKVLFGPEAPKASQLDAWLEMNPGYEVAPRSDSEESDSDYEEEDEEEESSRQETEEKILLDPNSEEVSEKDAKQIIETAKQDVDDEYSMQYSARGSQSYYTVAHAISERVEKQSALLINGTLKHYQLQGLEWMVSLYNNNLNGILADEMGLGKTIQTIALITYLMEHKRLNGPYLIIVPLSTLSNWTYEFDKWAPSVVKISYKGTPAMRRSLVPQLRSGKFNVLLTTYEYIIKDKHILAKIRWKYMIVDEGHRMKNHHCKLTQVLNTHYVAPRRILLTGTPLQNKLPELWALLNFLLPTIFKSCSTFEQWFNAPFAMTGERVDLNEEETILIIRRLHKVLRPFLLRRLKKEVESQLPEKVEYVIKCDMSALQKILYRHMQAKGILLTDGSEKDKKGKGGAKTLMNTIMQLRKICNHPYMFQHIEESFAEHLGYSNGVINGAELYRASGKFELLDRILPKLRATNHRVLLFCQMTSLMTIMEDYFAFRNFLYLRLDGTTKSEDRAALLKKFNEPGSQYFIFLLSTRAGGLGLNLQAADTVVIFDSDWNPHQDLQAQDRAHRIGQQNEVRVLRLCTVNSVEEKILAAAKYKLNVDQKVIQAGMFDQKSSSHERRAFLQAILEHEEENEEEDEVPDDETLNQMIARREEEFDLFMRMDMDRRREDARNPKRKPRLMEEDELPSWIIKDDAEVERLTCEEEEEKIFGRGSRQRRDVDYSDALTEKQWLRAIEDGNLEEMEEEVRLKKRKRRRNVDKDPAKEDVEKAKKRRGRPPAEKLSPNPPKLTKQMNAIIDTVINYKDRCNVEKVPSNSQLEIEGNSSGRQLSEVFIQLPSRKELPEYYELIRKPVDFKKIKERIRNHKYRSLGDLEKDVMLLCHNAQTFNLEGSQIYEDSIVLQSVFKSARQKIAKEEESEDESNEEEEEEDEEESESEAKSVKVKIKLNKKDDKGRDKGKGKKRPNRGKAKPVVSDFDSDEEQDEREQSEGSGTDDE
# EXPERIMENTAL_PROTOCOL: SMARCA2 Cellular Degradation Assay (Western blot analysis on Jess platform)
# Assay type: cell-based
# EXPERIMENTAL_SETUP: cellular degradation
Recorded DC50 for the following molecules
MEASURED_METRIC: DC50 (nM)

* CC(C)c1cc(C2(C(=O)N3CC4(CN(CCC5CCN(c6ccc(C7CCC(=O)NC7=O)cc6)CC5)C4)C3)CCN(c3cnnc(-c4ccccc4O)c3)CC2)no1 (racemic) | 12.4
* COc1ccccc1C1(C(=O)N(C)C2CCN(CCC3CCN(c4ccc([C@H]5CCC(=O)NC5=O)c(F)c4)CC3)CC2)CCN(c2cnnc(-c3ccccc3O)c2)CC1 | 8.19
* O=C1CC[C@@H](c2ccc(N3CCC(CN4CC5(C4)CN(C(=O)C4(c6ccccc6)CCN(c6cnnc(-c7ccccc7O)c6)CC4)C5)CC3)cc2)C(=O)N1 | 41.4
